Test system: Calf thymus DNA
Experiment: DNA binding affinity constant in calf-thymus DNA at pH 7.4
Format: nucleic-acid assay
Conditions: Bos taurus
value_type: log10(K app) (log10 of the value in M⁻¹)
Parameter value (number): base-10 log of K app in M⁻¹.

{"smiles_record": "COc1ccc2[nH]c3ccc4ncccc4c3c2c1", "test_system": "Calf thymus DNA", "log10(K app)": 4.20}
{"smiles_record": "COc1ccc2c(c1)c1c3ncccc3ccc1n2C", "test_system": "Calf thymus DNA", "log10(K app)": 4.36}

Items follow; give log10(K app) for each.
1. C[n+]1ccc2ccc3[nH]c4ccc(O)cc4c3c2c1.[I-]
2. COc1ccc2c(c1)c1c3c[n+](CCN4CCCCC4)ccc3ccc1n2C.[Cl-]
3. C[n+]1cccc2c3c(ccc21)[nH]c1ccccc13.[I-]
4. COc1ccc2[nH]c3ccc4cccnc4c3c2c1

1. 5.26
2. 5.48
3. 4.78
4. 4.26

Items follow; give log10(K app) for each.
1. COc1ccc2[nH]c3ccc4cc[n+](CCO)cc4c3c2c1.[I-]
2. COc1ccc2[nH]c3ccc4cc[n+](CCN5CCCCC5)cc4c3c2c1.[Cl-]

1: 5.04; 2: 5.08

Items follow; give log10(K app) for each.
1. COc1ccc2c(c1)c1c3c[n+](C)ccc3ccc1n2C.[I-]
2. C[n+]1ccc2c(ccc3[nH]c4ccc(O)cc4c32)c1.[I-]
3. COc1ccc2c(c1)c1c3cc[n+](C)cc3ccc1n2C.[I-]
4. COc1ccc2[nH]c3ccc4c[n+](C)ccc4c3c2c1.[I-]

[5.84, 4.83, 5.49, 5.30]
